# System Name: Pseudomonas aeruginosa LpxC enzyme (Pseudomonas aeruginosa (strain ATCC 15692 / DSM 22644 / CIP 104116 / JCM 14847 / LMG 12228 / 1C / PRS 101 / PAO1), UniProt P47205)
# Run Description: IC50 Assay, LpxC Enzyme from P. aeruginosa (PA LpxC Enzyme IC50)
# Format: biochemical
# Assay Conditions: Table 3; read-out: PA LpxC enzyeme IC^50
So I've got a bunch of compounds here, and I need their IC50 values.
Give bare numbers, in nM.

// worked examples, IC50 included
CC(CCc1ccc(OCCCOc2ccccc2)cc1)(C(=O)NO)S(C)(=O)=O (centres unmarked)
42.5
CC(CCc1ccc(OCc2ccc(F)cc2C#N)cc1)(C(=O)NO)S(C)(=O)=O (centres unmarked)
5.36
CC(CCc1ccc(OCc2nc(C3CCC3)no2)cc1)(C(=O)NO)S(C)(=O)=O (centres unmarked)
7.56
Cc1ccc(OCc2noc(COc3ccc(CCC(C)(C(=O)NO)S(C)(=O)=O)cc3)n2)cc1 (centres unmarked)
11.9
CC(CCc1ccc(OCc2ccc(C(F)(F)F)cc2)cc1)(C(=O)NO)S(C)(=O)=O (centres unmarked)
2.08

For every item in the list below, what is its measured IC50?
1. Cc1ccccc1COc1ccc(CCC(C)(C(=O)NO)S(C)(=O)=O)cc1 (centres unmarked)
2. CC(CCc1ccc(OCC2CCOCC2)cc1)(C(=O)NO)S(C)(=O)=O (centres unmarked)
3. CC(CCc1ccc(OCc2ccccc2C#N)cc1)(C(=O)NO)S(C)(=O)=O (centres unmarked)

[1.45, 4.93, 10]

----------
# Tested on: Klebsiella pneumoniae: Ciprofloxacin-resistant isolate, ESBL, clinical isolate (KP-3700)
# Run Description: MIC determination (CLSI), KP-3700
# Assay type: cell-based
Value Kind: KP-3700 MIC (µg/mL)
Numbers only, in µg/mL.

CC(CCc1ccc(-c2ccc(OCCO)cc2F)cc1)(C(=O)NO)S(C)(=O)=O (stereo not drawn)
4
CC(CCc1ccc(-c2ccccc2F)cc1)(C(=O)NO)S(C)(=O)=O (stereo not drawn)
8
CC(=O)c1cc(-c2ccc(CCC(C)(C(=O)NO)S(C)(=O)=O)cc2)ccc1O (stereo not drawn)
16
COc1cc(CCC(C)(C(=O)NO)S(C)(=O)=O)ccc1-c1ccccc1 (stereo not drawn)
16
CCc1ccccc1COc1ccc(CCC(C)(C(=O)NO)S(C)(=O)=O)cc1 (stereo not drawn)
32

I need KP-3700 MIC for every entry listed below, if you could help.
1. C[C@@](CCc1ccc(-c2cc3ccccc3o2)cc1)(C(=O)NO)S(C)(=O)=O
2. CC(CCc1ccc(-c2ccc(O)cc2)c(F)c1)(C(=O)NO)S(C)(=O)=O (stereo not drawn)
3. CC(CCc1ccc(-c2ccccc2Cl)cc1)(C(=O)NO)S(C)(=O)=O (stereo not drawn)
4. COc1cc(CCC(C)(C(=O)NO)S(C)(=O)=O)ccc1-c1ccc(F)cc1 (stereo not drawn)

[4, 8, 8, 8]

----------
# Test system: Klebsiella pneumoniae: Ciprofloxacin-resistant isolate, ESBL, clinical isolate (KP-3700)
# Run Description: MIC determination (CLSI), KP-3700
# Assay type: cell-based
Exercise: for every item that follows, state its recorded KP-3700 MIC.
Answers are plain numbers, in µg/mL.

// below: answered compounds
COc1ccc(-c2ccc(CCC(C)(C(=O)NO)S(C)(=O)=O)cc2)cc1C (racemic) [Example 67]
8
CCCCCCOc1ccc(CCC(C)(C(=O)NO)S(C)(=O)=O)cc1 (centres unmarked) [Example 252]
32

Hey, quick one: what's KP-3700 MIC for each of these?
1. Cc1cc(-c2ccc(C#N)cc2)ccc1CCC(C)(C(=O)NO)S(C)(=O)=O (centres unmarked) [Example 161]
2. CC(CCc1ccc(OCc2ccc(Cl)cc2F)cc1)(C(=O)NO)S(C)(=O)=O (centres unmarked) [Example 307]
3. CC(CCc1ccc(-c2cc(F)c(C#N)c(F)c2)cc1)(C(=O)NO)S(C)(=O)=O (centres unmarked) [Example 127]

16
8
8

----------
Answer each item with its documented IC50.
# System Name: Pseudomonas aeruginosa LpxC enzyme (Pseudomonas aeruginosa (strain ATCC 15692 / DSM 22644 / CIP 104116 / JCM 14847 / LMG 12228 / 1C / PRS 101 / PAO1), UniProt P47205)
# Run Description: IC50 Assay, LpxC Enzyme from P. aeruginosa (PA LpxC Enzyme IC50)
# Format: biochemical
# Assay Conditions: Table 1; read-out: PA LpxC enzyeme IC50
# Procedure: In order to assess the compounds biological activity, selected in-vitro assays were conducted on selected compounds. One of the assays measured the compounds ability to disrupt the synthesis of lipopolysaccharide, LPS, which is a component of the outer membrane of Gram-negative bacteria. Disruption of this synthesis is lethal to the bacteria. The assay determined the compound's ability to inhibit LpxC, which is the first enzyme in the biosynthetic pathway for LPS (measured as IC50). […]
Give bare numbers, in nM.

Consider the following illustrative entries.
CC(CCc1ccc(-c2ccc([N+](=O)[O-])cc2)cc1)(C(=O)NO)S(C)(=O)=O (racemic)
0.12
Cc1cc(-c2ccccc2)ccc1CCC(C)(C(=O)NO)S(C)(=O)=O (centres unmarked)
1.68
CC(CCc1ccc(C2=CCCCCC2)cc1)(C(=O)NO)S(C)(=O)=O (centres unmarked)
0.29
CC(CCc1ccc(-c2ccccc2)cc1F)(C(=O)NO)S(C)(=O)=O (centres unmarked)
0.26
C[C@@](CCc1ccc(-c2ccc(OP(=O)(O)O)cc2)cc1)(C(=O)NO)S(C)(=O)=O
88.1

Go through the list and state IC50 for each entry.
1. CC(CCc1ccc(COc2ccccc2)cc1)(C(=O)NO)S(C)(=O)=O (centres unmarked)
2. C[C@@](CCc1ccc(-c2ccc(O)cc2)cc1)(C(=O)NO)S(C)(=O)=O
3. CC(CCc1ccc(-c2ccc(F)cc2)c(O)c1)(C(=O)NO)S(C)(=O)=O (centres unmarked)

[2.38, 0.18, 15.4]

----------
# System Name: Pseudomonas aeruginosa LpxC enzyme (Pseudomonas aeruginosa (strain ATCC 15692 / DSM 22644 / CIP 104116 / JCM 14847 / LMG 12228 / 1C / PRS 101 / PAO1))
# Run Description: IC50 Assay, LpxC Enzyme from P. aeruginosa (PA LpxC Enzyme IC50)
# Assay type: biochemical
# Assay Conditions: P. aeruginosa LpxC enzyme; read-out: PA LpxC enzyeme IC50
Kindly supply the reported pIC50 values for the records listed here.
Give bare numbers, as −log10 of the molar value.

Reference set, count: 5
C[C@@](CCc1ccc(-c2ccc(NS(C)(=O)=O)cc2)cc1)(C(=O)NO)S(C)(=O)=O
9.15
CC(CCc1ccc(C2=CCOCC2)cc1)(C(=O)NO)S(C)(=O)=O (centres unmarked)
8.73
C[C@@](CCc1ccc(-c2ccc(OCCCN3CCCCC3)cc2)cc1)(C(=O)NO)S(C)(=O)=O
9.33
CC(CCc1ccc(-c2ccc(C#N)cc2F)cc1)(C(=O)NO)S(C)(=O)=O (centres unmarked)
9.63
CC(CCc1ccc(-c2ccc(N3CCOCC3)cc2)cc1)(C(=O)NO)S(C)(=O)=O (centres unmarked)
9.53

Hello, I would appreciate it if you could give pIC50 for each entry below.
1. CC1(O)CCN(C(=O)COc2ccc(-c3ccc(CC[C@](C)(C(=O)NO)S(C)(=O)=O)cc3)cc2)CC1
2. C[C@@](CCc1ccc(-c2ccc3c(c2)C(=O)NC3)cc1)(C(=O)NO)S(C)(=O)=O
3. COc1ccc(-c2ccc(CCC(C)(C(=O)NO)S(C)(=O)=O)cn2)c(F)c1 (centres unmarked)

[9.08, 9.43, 8.92]

----------
# Test system: Acinetobacter baumanii/haemolyticus: Multidrug-resistant clinical isolate (AB-3167)
# Run Description: MIC determination (CLSI), AB-3167
# Format: cell-based
# Assay Conditions: Acinetobacter baumanii/haemolyticus multidrug-resistant clinical isolate AB-3167
Value Kind: AB-3167 MIC

COc1ncccc1-c1ccc(CCC(C)(C(=O)NO)S(C)(=O)=O)cc1 (racemic)
≧64 mg/L
CC(CCc1ccc(-c2ccc(C#N)c(F)c2)cc1)(C(=O)NO)S(C)(=O)=O (centres unmarked)
≧64 mg/L
CC(CCc1ccc(-c2ccc(C#N)cc2)nc1)(C(=O)NO)S(C)(=O)=O (centres unmarked)
≧64 mg/L
COc1cc(CCC(C)(C(=O)NO)S(C)(=O)=O)ccc1-c1ccccc1 (centres unmarked)
≧64 mg/L
C[C@@](CCc1ccc(-c2cccnc2)cc1)(C(=O)NO)S(C)(=O)=O
≧64 mg/L

Hey, quick one: what's AB-3167 MIC for each of these?
1. CC(O)C(=O)c1ccc(-c2ccc(CCC(C)(C(=O)NO)S(C)(=O)=O)cc2)cc1 (centres unmarked)
2. CC(CCc1ccc(-c2cccc(C#N)c2)cc1)(C(=O)NO)S(C)(=O)=O (centres unmarked)
3. CC(CCc1ccc(-c2ccc(O)cc2)c(F)c1)(C(=O)NO)S(C)(=O)=O (centres unmarked)
4. CC(CCc1ccc(-c2ccc3c(c2)CCO3)cc1)(C(=O)NO)S(C)(=O)=O (racemic)

≧64 mg/L
≧64 mg/L
32 µg/mL
16 µg/mL
